ASSAYED SYSTEM: T1, Pro-C1s
T1 construct: also called purified pro-C1s protein
T1 chain: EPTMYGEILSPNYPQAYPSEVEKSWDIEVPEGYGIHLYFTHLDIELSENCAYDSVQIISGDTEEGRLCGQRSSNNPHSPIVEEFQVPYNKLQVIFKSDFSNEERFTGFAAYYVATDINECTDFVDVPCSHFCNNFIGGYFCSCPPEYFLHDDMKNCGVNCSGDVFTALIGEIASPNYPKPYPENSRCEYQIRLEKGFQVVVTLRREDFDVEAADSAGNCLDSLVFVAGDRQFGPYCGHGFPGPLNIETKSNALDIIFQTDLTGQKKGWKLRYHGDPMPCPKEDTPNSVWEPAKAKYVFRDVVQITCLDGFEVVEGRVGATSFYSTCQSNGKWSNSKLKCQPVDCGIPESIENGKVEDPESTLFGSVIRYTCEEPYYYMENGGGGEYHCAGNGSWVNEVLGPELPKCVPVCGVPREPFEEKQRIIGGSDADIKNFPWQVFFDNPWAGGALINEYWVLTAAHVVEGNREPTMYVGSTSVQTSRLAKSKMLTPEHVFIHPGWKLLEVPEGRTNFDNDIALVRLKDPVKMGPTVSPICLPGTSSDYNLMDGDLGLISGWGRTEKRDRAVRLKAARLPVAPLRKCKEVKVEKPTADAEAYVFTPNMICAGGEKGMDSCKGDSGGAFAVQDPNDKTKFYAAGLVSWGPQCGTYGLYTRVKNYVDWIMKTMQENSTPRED
TEST DESCRIPTION: bio-layer interferometry (BLI), kinetic analysis
PROPERTY NAME: kon (M⁻¹ s⁻¹)
Respond numerically; units are M⁻¹ s⁻¹ and should not be typed.

Would you please look over these solved cases?
antibody IPN-M23 (antibody, V domains shown, Mouse monoclonal antibody (NZBW hybridoma)) VH: QVQLQQPGAELVRPGASVKLSCKVSGYTFTRYWMHWVKQRPGQGLEWIGEINPSNSDTDYNEEFKSKATLTVDKSSSTAYMHLSSLTSEDSAVYYCTIDDSVYGWFAYWGQGTLVTVSA VL: DIVMTQSPAIMFASPGERVTMTCSASSSISYMPWYPQKPGPSPKRWIYDTSKLASGVPARFSGSGFGTFYSLTISSMEAEDAAPYYCHQRSSFPPFGAGTKLELK ... 48400
antibody IPN-M1 (antibody, V domains shown, Mouse monoclonal antibody (NZBW hybridoma); of the 17, thirteen were IgG2a, one IgG2b, three IgG1; Same VL and VH as IPN-M3 and IPN-M13) VH: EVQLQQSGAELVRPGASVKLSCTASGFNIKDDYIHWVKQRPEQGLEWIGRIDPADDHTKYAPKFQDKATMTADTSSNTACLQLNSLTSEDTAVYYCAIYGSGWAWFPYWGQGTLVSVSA VL: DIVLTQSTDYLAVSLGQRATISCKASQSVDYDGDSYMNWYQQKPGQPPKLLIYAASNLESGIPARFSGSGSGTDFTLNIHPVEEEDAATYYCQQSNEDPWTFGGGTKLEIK ... 4120
antibody IPN-M8 (antibody, V domains shown, Mouse monoclonal antibody (NZBW hybridoma); Same VL and VH as IPN-M2) VH: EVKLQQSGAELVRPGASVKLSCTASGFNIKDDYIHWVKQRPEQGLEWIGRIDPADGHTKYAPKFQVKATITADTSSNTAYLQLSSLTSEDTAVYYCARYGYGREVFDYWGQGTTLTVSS VL: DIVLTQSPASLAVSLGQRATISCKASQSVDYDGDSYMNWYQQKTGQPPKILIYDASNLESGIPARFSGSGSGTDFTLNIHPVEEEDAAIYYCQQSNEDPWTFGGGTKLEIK ... 9080

Note: attention shifts to another entry.
## Task Provide only the value of recorded kon for antibody IPN-M10 (antibody, V domains shown, Mouse monoclonal antibody (NZBW hybridoma)) VH: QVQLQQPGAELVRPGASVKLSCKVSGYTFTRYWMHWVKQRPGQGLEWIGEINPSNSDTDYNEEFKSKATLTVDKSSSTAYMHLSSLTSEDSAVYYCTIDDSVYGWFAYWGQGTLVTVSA VL: DIVITQSPAIMSASPGERVTMTCSASSSISYMHWYHQKPGTSPKRWIYDTSKLASGVPARFSGSGSGTSYSLTISSMEAEDAATYYCHQRSSFPTFGAGTKLELK
## Result 42500

Measured values drawn from patent US20200079876A1 for this set.
